# Tested on: SR
# Run Description: NCI tumour cell line growth inhibition, 48 h
Active and inactive are the calls of the source. No stated cut-off is given here; in the data, active = GI50 up to about 1.1 µM and inactive = higher.
Can you answer with just one of these options? TRUE = active, FALSE = inactive

Previously resolved entries follow.
CCOC(=O)C(C)(C)/C=C\C(Cl)=C(Cl)Cl	FALSE
Nc1ccc2c(c1)Nc1c3ccccc3nc3cccc-2c13	TRUE

[in] Can you look up the reported call for COC(=O)CC1C2CC3C(C2=O)C13 (stereo unspecified) for me?
[out] FALSE

###

# Tested on: BT-549
# Run Description: NCI tumour cell line growth inhibition, 48 h
Active and inactive are the calls of the source. No stated cut-off is given here; in the data, active = GI50 up to about 1.1 µM and inactive = higher.
Can you answer with just one of these options? active, inactive

Nc1nc(SCc2ccccn2)c2ncn(C3CCCC3)c2n1	inactive
CCOC(=O)C1=C(C#N)S(=O)(=O)c2c(oc(C)c2C)N1	inactive
Cn1cnc(C(N)=[Se])c1N	inactive
COc1cccc(-c2nc(-c3cnccn3)n(C/C=C/c3ccccc3)n2)c1	inactive

[in] Can you look up the reported call for CN1C(=O)C(C#N)C2C[C@@]1(C)Oc1ccccc12 (some centres undefined) for me?
[out] inactive

[in] Can you look up the reported call for CC(=O)O[C@H]1C(=O)[C@@]2(C)[C@H]([C@H](OC(=O)c3ccccc3)[C@]3(O)C[C@H](OC(=O)[C@H](O)[C@@H](NC(=O)C(C)(C)C)c4ccccc4)C(C)=C1C3(C)C)[C@]1(OC(C)=O)CO[C@@H]1C[C@@H]2O for me?
[out] active

[in] Can you look up the reported call for O=S(=O)(O)c1cc(/N=N/c2c(O)ccc3ccccc23)c2c(S(=O)(=O)O)cccc2c1 for me?
[out] inactive

[in] Can you look up the reported call for c1cc2c3ccsc3c3sccc3c2s1 for me?
[out] inactive

[in] Can you look up the reported call for O=C(O)[C@H](c1ccccc1)[C@@H](C(=O)O)c1ccccc1 for me?
[out] inactive

###

Would you mind telling me the reported GI50 of each entry?
# System: NCI-H23
# Run Description: NCI tumour cell line growth inhibition, 48 h
Active and inactive are the calls of the source. No stated cut-off is given here; in the data, active = GI50 up to about 1.1 µM and inactive = higher.

O=[N+]([O-])c1cccc(C(O)/C(=N/Nc2ccccc2)C2Nc3ccc([N+](=O)[O-])cc3N=C2O)c1 (stereo not given)	> 100 µM (inactive)

Look up GI50 for the entries below, preserving their order.
1. CCOC(=O)CCC(NC(=O)c1ccc(Oc2nc3c(N)cc(C(F)(F)F)cc3nc2-c2ccccc2)cc1)C(=O)OCC (stereo not given)
2. CC(=O)/N=C1\N/C(=C/c2cc([N+](=O)[O-])ccc2O)CN1C
3. N=C(N)N/N=C/c1c(-c2ccc(N)cc2)nc2sccn12
4. C#CCNC(CCCNC(=N)N)C(=O)O (stereo not given)

[out]
21.3 µM (inactive)
> 100 µM (inactive)
28.1 µM (inactive)
> 100 µM (inactive)

###

# Test system: LOX IMVI
# Run Description: NCI tumour cell line growth inhibition, 48 h
Calls of active or inactive are those of the source. Cut-off read from the data, not from the text of the source: active = GI50 up to about 1.1 µM and inactive = higher.
Can you answer with just one of these options? active, inactive

Previously resolved entries follow.
C=C1C(=O)O[C@@H]2C(=O)[C@@H](C)[C@@H]3C=CC(=O)[C@@]3(C)[C@@H](OC(=O)/C(C)=C\C)[C@H]12	active
CCOc1ncn(-c2ccc(NC(=S)Nc3cccc(O)c3)cc2)n1	inactive
CC(=O)O[C@H]1C(=O)[C@@]2(C)[C@H]([C@H](OC(=O)c3ccccc3)[C@]3(O)C[C@H](OC(=O)[C@H](O)[C@@H](NC(=O)C(C)(C)C)c4ccccc4)C(C)=C1C3(C)C)[C@]1(OC(C)=O)CO[C@@H]1C[C@@H]2O	active

Now look at this entry.
[in] Can you look up the reported call for CCOC(=O)/C=C1/C(CCCOCc2ccccc2)C2CCCC23CC2(CCN13)OCCO2 (centres undefined) for me?
[out] inactive

###

# System: IGROV-1
# Run Description: NCI tumour cell line growth inhibition, 48 h
Calls of active or inactive are those of the source. No stated cut-off is given here; in the data, active = GI50 up to about 1.1 µM and inactive = higher.
Can you answer with just one of these options? active, inactive

COc1ccc(-c2cn3ccsc3n2)cc1	inactive

[in] Can you look up the reported call for COC1=CC2=NCCc3n[nH]c(c32)C1=O for me?
[out] inactive

[in] Can you look up the reported call for N/C(S)=N/N=C/c1ncccc1O for me?
[out] inactive

[in] Can you look up the reported call for O=C1C=CC=C/C1=C1\N=C(c2ccccc2OCC(=O)c2ccccc2)SS1 for me?
[out] inactive

[in] Can you look up the reported call for O=C1C[C@@H](c2ccc(O)cc2)[C@@]2(O1)C(=O)O[C@H]([C@@H](O)CO)[C@@H]2O for me?
[out] inactive

[in] Can you look up the reported call for CCOC(=O)C(C)(C)/C=C\C(Cl)=C(Cl)Cl for me?
[out] inactive

[in] Can you look up the reported call for FC(F)(F)P1C2C=CC(CC2)C1(F)F (centres undefined) for me?
[out] inactive

[in] Can you look up the reported call for CCOC(=O)C(=O)Nc1nc2c(s1)C(=O)c1ccccc1C2=O for me?
[out] inactive

[in] Can you look up the reported call for CCOP(=O)(CC1CC(O)(CNc2cc(Cl)nc(N)n2)C1)OCC (centres undefined) for me?
[out] inactive

[in] Can you look up the reported call for CC(=O)/N=C1\N/C(=C/c2cc([N+](=O)[O-])ccc2O)CN1C for me?
[out] inactive

[in] Can you look up the reported call for CCCc1cc2c(cc1O)CC[C@@H]1[C@@H]2CC[C@]2(C)[C@@H](O)CC[C@@H]12 for me?
[out] inactive

[in] Can you look up the reported call for CC12CC(=O)OC(Cc3ccccc31)O2 (centres undefined) for me?
[out] inactive

[in] Can you look up the reported call for Nc1nc(S)nc(C(=O)Nc2ccc(Cl)c(Cl)c2)c1-c1ccc(Cl)cc1 for me?
[out] inactive

###

# Tested on: MOLT-4
# Run Description: NCI tumour cell line growth inhibition, 48 h
The source made the active and inactive calls. Rule as the data show it: active = GI50 up to about 1.1 µM and inactive = higher.
Can you answer with just one of these options? yes (active), no (inactive)

Previously resolved entries follow.
Cc1[nH]c2ccccc2c1/C=C/c1c(C)[nH]c2ccccc12	no
O=C(CC(=O)Nc1ccccc1O)Nc1ccccc1O	no
CC(C)=NN/C(=N\c1ccc(Cl)cc1)NS(=O)(=O)c1ccc(C)cc1	no
O=C1OS2(OC(=O)c3cccc4cccc2c34)c2ccccc21 (stereo not drawn)	no

[in] Can you look up the reported call for N=C(N)N/N=C/c1c(-c2ccc(N)cc2)nc2sccn12 for me?
[out] no

[in] Can you look up the reported call for CN(CCO)CC(=O)CC(O)(C(F)(F)F)C(F)(F)F for me?
[out] no

###

# Tested on: DU-145
# Run Description: NCI tumour cell line growth inhibition, 48 h
Active and inactive are the calls of the source. Rule as the data show it: active = GI50 up to about 1.1 µM and inactive = higher.
Can you answer with just one of these options? active, inactive

Previously resolved entries follow.
CN(C)CCNc1ccc2ncn3c4ccc(O)cc4c(=O)c1c23	active
COC(=O)c1ccc(NCc2cc(O)c3ccccc3c2O)cc1	inactive
COc1ccc(C(=O)c2ccc(-n3c4ccccc4c4ccc5c(c43)C(=O)C=CC5=O)cc2)cc1	inactive
Clc1cc(OCc2nn3c(Cc4ccccc4)nnc3s2)c(Cl)cc1OCc1nn2c(Cc3ccccc3)nnc2s1	inactive
Cc1cccc(CP(Cc2cccc(C)c2)CC2(Cp3c4ccccc4c4ccccc43)COC2)c1	inactive

[in] Can you look up the reported call for c1cncc(CSc2ncnc3[nH]cnc23)c1 for me?
[out] inactive

[in] Can you look up the reported call for COC(=O)c1c2c(cc3c1CC1(Cc4ccccc4C1)C3)CCC2 for me?
[out] inactive

[in] Can you look up the reported call for CC(=O)OC/C=C(\C)CCC(Br)C(C)(C)Br (stereo not drawn) for me?
[out] inactive

###

# Tested on: ACHN
# Run Description: NCI tumour cell line growth inhibition, 48 h
Activity calls are given as the source filed them. No stated cut-off is given here; in the data, active = GI50 up to about 1.1 µM and inactive = higher.
Would you mind telling me the reported GI50 of each entry?

In the examples that follow, each entry is paired with its recorded GI50.
COC(=O)C1=C(C(=O)OC)SC(=C2SC3=C(SC(=C4SCCS4)S3)S2)S1	> 100 µM (inactive)
CC(C(=O)ON1C(=O)CCC1=O)c1ccc(C(=O)c2ccccc2)s1 (stereo unspecified)	> 100 µM (inactive)
COc1ccc2c(C)cc(=O)oc2c1OC	> 100 µM (inactive)
COc1ccc(Nc2nc(N)c(C(=O)c3ccccc3)s2)cc1	7.67 µM (inactive)
O=C(CC(=O)Nc1ccccc1O)Nc1ccccc1O	9.86 µM (inactive)

// moving on: another record for GI50
[in] May I ask what GI50 has been recorded for COC(=O)CCC(=O)N1Cc2cc(C)ccc2N(C(=O)CCC(=O)OC)Cc2cc(C)ccc21 ?
[out] > 100 µM (inactive)

###

# Test system: Malme-3M
# Run Description: NCI tumour cell line growth inhibition, 48 h
The source made the active and inactive calls. No stated cut-off is given here; in the data, active = GI50 up to about 1.1 µM and inactive = higher. Where a SMILES comes first, the peptide text is derived from it. The star is where a group is joined. Cbz = O=C(OCc1ccccc1)*; Boc = CC(C)(C)OC(=O)*; OSu = O=C1CCC(=O)N1O*; Bn = c1ccc(C*)cc1
Would you mind telling me the reported GI50 of each entry?

In the examples that follow, each entry is paired with its recorded GI50.
CC(C)(C)OC(=O)NC(Cc1ccc(OCc2ccccc2)cc1)C(=O)NC(CCCCNC(=O)OCc1ccccc1)C(=O)ON1C(=O)CCC1=O (centres undefined) (Boc-Tyr(Bn)-Lys(Cbz)-OSu; configuration not given here)	23.1 µM (inactive)
c1cnc2c3[nH]cc4[nH]c5ccccc5c4c-3nc2c1	28.4 µM (inactive)
C(/COc1cccnc1)=N\NC1=NCCN1	> 100 µM (inactive)

// moving on: another record for GI50
[in] May I ask what GI50 has been recorded for O=C1C(Br)=C(c2ccccc2)C(c2ccccc2)=C1c1ccccc1 ?
[out] 1.75 µM (inactive)
